Test system: P. falciparum 3D7 parasites
Assay: P. falciparum growth inhibition assay, 1-cycle (72 h treatment), SYBR DNA staining (library screen at 2 μg/mL and dose-response)
Format: cell-based, Plasmodium falciparum
Conditions: Plasmodium falciparum, 3D7, 72 h, library screen at 2 μg/mL, 72 h, % growth, replicate 1; read-out: Pf_72h_%Growth_Rep1
Returns the class for an entry based on its activity at 2 µg/mL. Class ranges: bin A: < 50%; bin B: ≥ 50% and < 80%; bin C: ≥ 80%

• CC1=C[C@@H]2/C=C(\C)CC[C@H](O)[C@H](O)/C=C/C(=O)[C@]23C(=O)N[C@@H](CC(C)C)[C@@H]3[C@@H]1C = bin B
• C[C@@](O)(/C=C/[C@H]1CC=CC(=O)O1)[C@@H](C[C@@H](O)\C=C/C=C\C=C\CO)OP(=O)(O)O = bin A
• CS(=O)(=O)c1ccc([C@@H](O)[C@@H](CF)NC(=O)C(Cl)Cl)cc1 [Florfenicol, reference compound] = bin B
• CCC(=O)CCCCC[C@@H]1NC(=O)[C@H]2CCCCN2C(=O)[C@H]([C@@H](C)CC)NC(=O)[C@H](Cc2cn(OC)c3ccccc23)NC1=O = bin A
• CCCC[C@H]1C(=O)O[C@H](C)[C@H](NC(=O)c2cccc(NC=O)c2O)C(=O)O[C@@H](C)[C@@H]1OC(=O)CC(C)C [Antimycin A3] = bin A
• CCCCC[C@@H](O)[C@H]1C(=O)O[C@H](C)[C@@H](O)/C=C/C=C/C=C/C=C/C=C(\C)[C@@H](O)C[C@H](O)C[C@H](O)C[C@H](O)C[C@H](O)C[C@H](O)C[C@@H]1O = bin C
• C=CC(C)(C)[C@@]12C[C@H]3C(=O)N4[C@@H](C[C@@]5(C(C)(C)C=C)c6ccccc6N[C@@H]45)C(=O)N3[C@@H]1Nc1ccccc12 = bin A
• CC(=O)O[C@H]1C[C@@]2(C)[C@@H](C[C@@H](O)[C@H]3[C@@]4(C)CC[C@@H](O)[C@@H](C)[C@@H]4CC[C@@]32C)/C1=C(\CCC=C(C)C)C(=O)O [Fusidate sodium] = bin C
• O=c1cccc2n1C[C@H]1C[C@@H]2CN2CCCC[C@H]12 = bin C
• O=[N+]([O-])c1ncc[nH]1 = bin C
• CO[C@@H]1[C@H](OC(=O)/C=C/C=C/C=C/C=C/C(=O)O)CC[C@]2(CO2)[C@H]1[C@@]1(C)O[C@@H]1CC=C(C)C = bin A
• C[C@@H]1[C@H](O)[C@@H](C)/C=C/C=C/C=C/C=C/C=C/C=C/C=C/[C@H](O[C@@H]2O[C@H](C)[C@@H](O)[C@H](N)[C@@H]2O)C[C@@H]2O[C@](O)(C[C@@H](O)C[C@@H](O)[C@H](O)CC[C@@H](O)C[C@@H](O)CC(=O)O[C@H]1C)C[C@H](O)[C@H]2C(=O)O = bin C

###

System: T. gondii RH strain (RH-Tub-eYFP) tachyzoites
Assay: microbe, parasite or virus in culture
Assay type: cell-based, Toxoplasma gondii
Conditions: T. gondii RH, 72 h, library screen at 2 μg/mL, % growth, replicate 2
Criterion: Tg_72h_%Growth_Rep2 strictly less than 90%. Met: Met. Not met: Not met.

* Oc1cccc2nc3ccccc3nc12 | Met
* CCC(C)C1OC2(CCC1C)CC1CC(CC=C(C)C(O)C(C)C=CC=C3COC4C(O)C(C)=CC(C(=O)O1)C34O)O2 (centres unmarked) | Not met
* COc1ccc(C2CC(=O)c3c(O)cc(OC4OC(COC5OC(C)C(O)C(O)C5O)C(O)C(O)C4O)cc3O2)cc1O (centres unmarked) | Met
* O=c1cc2ccocc-2o1 | Not met
* CCCC1CC(C(=O)NC(C(C)O)C2OC(SC)C(O)C(O)C2O)N(C)C1 (centres unmarked) | Met
* CCC(C)C1OC2(CCC1C)CC1CC(CC=C(C)C(OC3CC(OC)C(OC4CC(OC)C(O)C(C)O4)C(C)O3)C(C)C=CC=C3COC4C(O)C(C)=CC(C(=O)O1)C34O)O2 (centres unmarked) | Not met
* COc1cc(C)c2c(OC)cc(=O)oc2c1-c1c(OC)cc(C)c2c(OC)cc(=O)oc12 | Not met
* CN1C(=O)[C@]23CC4=CC=C[C@H](O)[C@H]4N2C(=O)[C@@]1(CO)SS3 | Met
* O=C1C=CC(=O)c2c(O)cccc21 | Not met
* Cc1cc(OC(=O)c2c(C)cc(O)cc2O)cc(O)c1C(=O)O | Not met
* CC1OC(=O)C2CC3CCCCC3C(C=CC3CCCC(C)N3C)C12 (centres unmarked) | Not met
* CC1(C)OC2CC(=O)OCC23C1CC(=O)C1(C)C3CCC2(C)C(c3ccoc3)OC(=O)C3OC321 (centres unmarked) | Met
* CC[C@H](C)C(=O)O[C@H]1C[C@@H](C)C=C2C=C[C@H](C)[C@H](CC[C@@H]3C[C@@H](O)CC(=O)O3)[C@H]21 | Met
* COC(=O)C1(O)CC2OC1(C)n1c3ccccc3c3c4c(c5c6ccccc6n2c5c31)CNC4=O (centres unmarked) | Met

###

System: T. gondii RH strain (RH-Tub-eYFP) tachyzoites
Assay: microbe, parasite or virus in culture
Format: cell-based, Toxoplasma gondii
Details: T. gondii, 72 h, 2 μg/mL; mean of both replicates, growth (% of control)
Where a name gives a salt, the structure may show the parent alone.
Criterion: Mean strictly less than 30. Met: satisfied. Not met: not satisfied.

- CCCC(=O)O[C@H]1[C@H](C)O[C@@H](O[C@H]2[C@H](N(C)C)[C@@H](O)[C@H](O[C@H]3[C@@H](CC=O)C[C@@H](C)[C@@H](O)/C=C/C=C/C[C@@H](C)OC(=O)C[C@@H](OC(C)=O)[C@@H]3OC)O[C@@H]2C)C[C@@]1(C)O: satisfied
- CCCCCC1=C/C(=C/c2[nH]c(-c3ccc[nH]3)cc2OC)N=C1C: satisfied
- CO[C@@H]1[C@@H](OC(N)=O)[C@@H](O)[C@H](Oc2ccc3c(O)c(NC(=O)c4ccc(O)c(CC=C(C)C)c4)c(=O)oc3c2C)OC1(C)C [Novobiocin, reference compound]: not satisfied
- Cc1cc2nc3c(=O)[nH]c(=O)nc-3n(C[C@H](O)[C@H](O)[C@H](O)CO)c2cc1N(C)C: satisfied
- CN1CC[C@]2(c3cccc4c3N[C@H]3N(C)CC[C@@]43[C@]34CCN(C)[C@H]3Nc3ccccc34)c3ccccc3N[C@H]12: not satisfied
- CCCC[C@H]1C(=O)O[C@H](C)[C@H](NC(=O)c2cccc(NC=O)c2O)C(=O)O[C@@H](C)[C@@H]1OC(=O)CC(C)C [Antimycin A3]: satisfied
- CO[C@@H]1[C@@H](O[C@@H]2O[C@H](C)[C@@H](O[C@H]3C[C@@](C)(O)[C@@H](OC(=O)CC(C)C)[C@H](C)O3)[C@H](N(C)C)[C@H]2O)[C@@H](CC=O)C[C@@H](C)[C@@H](O)/C=C/C=C/C[C@@H](C)OC(=O)C[C@H]1OC(C)=O [Josamycin (Leucomycin A3), reference compound]: satisfied
- COC(=O)c1ccc(CCCCCCCCCCc2ccc(C(=O)OC)nc2)cn1 [Penicolinate A]: not satisfied
- CN(C)c1ccc(O)c2c1C[C@H]1C[C@H]3[C@H](N(C)C)C(O)=C(C(N)=O)C(=O)[C@@]3(O)C(O)=C1C2=O [Minocycline HCl, reference compound]: satisfied
- COc1cc2c(oc(=O)c3cc(C)cc(OC)c32)c2c([C@@H]3O[C@H](C)[C@H](O)[C@@](C)(O)[C@H]3O)ccc(O)c12: satisfied
- CN1CCC2(c3cccc4c3NC3N(C)CCC43c3cccc4c3NC3N(C)CCC43C34CCN(C)C3Nc3c(C56CCN(C)C5Nc5ccccc56)cccc34)c3ccccc3NC12 (centres unmarked): not satisfied

###

Collected activity at 2 µg/mL values appear next to each entry.
System: P. falciparum 3D7 parasites
Assay: P. falciparum growth inhibition assay, 2-cycle (120 h treatment), delayed-death screen and dose-response
Type: cell-based, Plasmodium falciparum
Conditions: Plasmodium falciparum, 3D7; library screen at 2 μg/mL, 120 h, % growth, replicate 2; read-out: Pf_120h_%Growth_Rep2
Counter-ions that a name gives are not always drawn.
parameter-measured: activity at 2 µg/mL (%)

• CN(C)[C@H]1C(O)=C(C(N)=O)C(=O)[C@@]2(O)C(O)=C3C(=O)c4c(O)cccc4[C@@](C)(O)[C@H]3C[C@@H]12 [Epitetracycline hydrochloride] = 11.5
• CC(/C=C/[C@@]1(C)[C@H](C)CCC(=O)[C@@H]1C)=C\Cc1c(O)c(Cl)c(C)c(C=O)c1O = 86.1
• Cc1cc(O)c2c(c1)C(=O)c1cc(O)cc(O)c1C2=O = 114
• Cc1cc(O)c(C=O)c2c1C(=O)Oc1c(COC(=O)/C=C/C(=O)O)c(O)c(C(=O)O)c(C)c1O2 = 100
